Multiple publications report pKi for Muscarinic acetylcholine receptor M4 (Homo sapiens, UniProt P08173); what follows is a combined list.
- ASSAY_SYSTEM: Muscarinic acetylcholine receptor M4 (Homo sapiens, UniProt P08173)
- Sequence (P08173 whole entry): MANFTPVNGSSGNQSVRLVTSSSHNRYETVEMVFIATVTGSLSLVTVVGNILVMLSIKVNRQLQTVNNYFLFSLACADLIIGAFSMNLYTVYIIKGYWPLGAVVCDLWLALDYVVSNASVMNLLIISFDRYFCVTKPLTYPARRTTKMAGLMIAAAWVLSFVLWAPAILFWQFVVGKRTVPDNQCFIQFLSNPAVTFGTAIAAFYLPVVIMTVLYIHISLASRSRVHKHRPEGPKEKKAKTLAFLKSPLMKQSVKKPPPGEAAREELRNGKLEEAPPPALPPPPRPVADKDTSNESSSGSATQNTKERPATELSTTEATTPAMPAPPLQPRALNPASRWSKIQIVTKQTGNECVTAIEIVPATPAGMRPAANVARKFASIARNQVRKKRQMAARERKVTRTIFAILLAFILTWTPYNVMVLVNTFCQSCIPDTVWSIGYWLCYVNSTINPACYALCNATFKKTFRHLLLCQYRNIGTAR
pKi: −log10 of the molar value.
Note to self: values exactly at 6 are met. So pKi at or above 6 is met, below is not met.

| COMPOUND | CAT |
| --- | --- |
| CCCCSC1=CCc2ccc(/N=C/N3CCc4cc(OC)c(OC)cc4C3)cc21 | not met |
| O=C1CCc2ccccc2N1CCCN1CCC(CCCCCCCCCCCO)CC1 | met |
| O=C(CCN1CCCc2ccccc21)Nc1cccc2ccccc12 | not met |
| CN1CCC[C@@H]1[C@@H]1C[S+]([O-])C(c2ccccc2)(c2ccccc2)O1 (stereo in doubt; (+)-5) | met |
| COc1cc2c(cc1OC)CN(/C=N/c1ccc3c(c1)C(O)CC3)CC2 (stereo not drawn) | met |
| O=C(CCN1CCCc2ccccc21)NCc1cccs1 | not met |
| COc1ccc([S@@+]([O-])c2ccc(C(C#N)N3CCN(C4CCCCC4)CC3)cc2)cc1 (stereo partly drawn) | met |
| CC1(C)C(/C=C/C=C/C=C2/N(CCCCCC(=O)NCCN3CCN(CCCCC4CCN(CC(=O)N5c6ccccc6NC(=O)c6ccccc65)CC4)CC3)c3ccc(S(=O)(=O)O)cc3C2(C)C)=[N+](CCCCS(=O)(=O)[O-])c2ccccc21.O=C(O)C(F)(F)F.O=C(O)C(F)(F)F | met |
